STUDY SYSTEM: DRB1*04:04 (Homo sapiens, UniProt P01903+P01911, A100R/A169T/F76Y/I96L/K127E/L162R/M171V/N62H/P40V/Q125Y/R42H/S133A/S149N/S66Y/V209L/W38E)
ASSAY SUMMARY: HLA class II peptide binding, inhibition of radiolabeled peptide binding to purified MHC
TEST CONDITIONS: SE+, competition with radiolabeled peptide, two-day incubation, three or more independent experiments
Ends that are not written are not given here.
OBSERVABLE: IC50 (nM)
Answer with a number only, understood to be in nM.

Some sequences with recorded IC50:
>>> readout_number("VVLLVATEGRVRVNSAYQDK [Aggrecan 84–103 WT]")
565
>>> readout_number("NQDFTNRINKLKNS [Fibrinogen 78–91 WT]")
2050
>>> readout_number("SAVRLRSSVPGVR [Vimentin 66–78 WT]")
206

Please look at the following sequence next.
Entry under test: LQYMRADQAAGGLR [Collagen II 1236–1249 WT] . Its IC50 was 102

###

STUDY SYSTEM: DRB1*13:02 (Homo sapiens, UniProt P01903+P01911, A100E/A169T/K41T/L162R/M171V/P40S/Q125H/Q178H/Q39Y/Q99D/R42S/S66N/T262R/V115G/W38E/Y61H)
ASSAY SUMMARY: HLA class II peptide binding, inhibition of radiolabeled peptide binding to purified MHC
TEST CONDITIONS: SE-, competition with radiolabeled peptide, two-day incubation, three or more independent experiments
Ends that are not written are not given here.
OBSERVABLE: IC50

>>> result("LQYMRADQAAGGLR [Collagen II 1236–1249 WT]")
"3.92 µM"

Record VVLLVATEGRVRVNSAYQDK [Aggrecan 84–103 WT] , field IC50: 0.268 µM

// IC50 value for NQDFTNRINKLKNS [Fibrinogen 78–91 WT] : > 30 µM

Measured IC50 of SAVRLRSSVPGVR [Vimentin 66–78 WT] : 11.4 µM

###

STUDY SYSTEM: HLA-DRB1*04:01 (Homo sapiens, UniProt P01903+P01911, A100K/A169T/F76Y/I96L/K127E/L162R/M171V/N62H/P40V/Q125Y/R42H/S133A/S149N/S66Y/V115G/V209L/W38E)
Construct: EBV transformed homozygous cell lines were used as sources of MHC molecules; endogenous in cells; host or cells: EBV transformed homozygous cell lines
ASSAY SUMMARY: HLA class II peptide binding, inhibition of radiolabeled peptide binding to purified MHC
TEST CONDITIONS: citrullinated 15-mer (X); purified MHC, inhibition of radiolabeled peptide binding; dash = IC50 >40,000 nM; read-out: DRB1*04:01 binding capacity, Cit peptide (IC50 nM)
Square brackets hold non-standard residues; d marks the D form. Peptide text beside a SMILES is read from it. Cit = NC(=O)NCCC[C@H](N)C(=O)O
Listed compounds paired with reported IC50
// units = nM; emit number, no label

Entry CC(C)C[C@H](NC(=O)[C@@H](NC(=O)[C@H](CC(N)=O)NC(=O)[C@H](CCC(=O)O)NC(=O)[C@H](C)NC(=O)[C@H](CCC(=O)O)NC(=O)[C@H](CCC(=O)O)NC(=O)[C@@H](N)CCCNC(N)=O)[C@@H](C)O)C(=O)N[C@@H](CCC(N)=O)C(=O)N[C@@H](CO)C(=O)N[C@@H](Cc1ccccc1)C(=O)N[C@@H](CCCNC(=N)N)C(=O)N[C@@H](CCC(N)=O)C(=O)N[C@@H](CC(=O)O)C(=O)N[C@H](C(=O)O)C(C)C [XEEAENTLQSFRQDV] (H-[Cit]EEAENTLQSFRQDV-OH) ; IC50 = 6330

IC50 in this record for CC[C@H](C)[C@H](NC(=O)[C@H](C)N)C(=O)N[C@@H](CC(N)=O)C(=O)N[C@H](C(=O)N[C@@H](CCC(=O)O)C(=O)N[C@@H](Cc1ccccc1)C(=O)N[C@@H](CCCCN)C(=O)N[C@@H](CC(N)=O)C(=O)N[C@H](C(=O)N[C@@H](CCCNC(N)=O)C(=O)N[C@H](C(=O)N[C@@H](CC(N)=O)C(=O)N[C@@H](CCC(=O)O)C(=O)N[C@@H](CCCCN)C(=O)N[C@H](C(=O)O)C(C)C)[C@@H](C)O)[C@@H](C)O)[C@@H](C)O [AINTEFKNTXTNEKV] (H-AINTEFKNT[Cit]TNEKV-OH) : 931

So, CSCC[C@H](NC(=O)[C@H](CCC(=O)O)NC(=O)[C@H](CCC(=O)O)NC(=O)[C@@H](N)CCC(=O)O)C(=O)N[C@@H](CCCNC(=N)N)C(=O)N[C@@H](CCC(=O)O)C(=O)N[C@@H](CC(C)C)C(=O)N[C@@H](CCCNC(=N)N)C(=O)N[C@@H](CCCNC(N)=O)C(=O)N[C@@H](CCC(N)=O)C(=O)N[C@H](C(=O)N[C@@H](CC(=O)O)C(=O)N[C@@H](CCC(N)=O)C(=O)N[C@@H](CC(C)C)C(=O)N[C@H](C(=O)O)[C@@H](C)O)C(C)C [EEEMRELRXQVDQLT] (H-EEEMRELR[Cit]QVDQLT-OH) ? Its IC50 was 1280

###

STUDY SYSTEM: HLA-DRB1*01:01 (Homo sapiens, UniProt P01903+P01911, A100R/D57E/F55L/F60I/F76Y/I96L/L162R/M171V/P40L/Q125E/R42F/V115G/Y59C)
Construct: EBV transformed homozygous cell lines were used as sources of MHC molecules; endogenous in cells; host or cells: EBV transformed homozygous cell lines
ASSAY SUMMARY: HLA class II peptide binding, inhibition of radiolabeled peptide binding to purified MHC
TEST CONDITIONS: citrullinated 15-mer (X); purified MHC, inhibition of radiolabeled peptide binding; dash = IC50 >40,000 nM; read-out: DRB1*01:01 binding capacity, Cit peptide (IC50 nM)
Square brackets hold non-standard residues; d marks the D form. Peptide text beside a SMILES is read from it. Cit = NC(=O)NCCC[C@H](N)C(=O)O
Entries and their IC50 values follow.
Respond numerically; units are nM and should not be typed.

>>> readout_number("CC(C)C[C@H](NC(=O)[C@H](C)NC(=O)[C@H](CO)NC(=O)CN)C(=O)N[C@@H](CCCNC(N)=O)C(=O)N1CCC[C@H]1C(=O)N[C@@H](CO)C(=O)N[C@H](C(=O)N[C@@H](CO)C(=O)N[C@@H](CCCNC(=N)N)C(=O)N[C@@H](CO)C(=O)N[C@@H](CC(C)C)C(=O)N[C@@H](Cc1ccc(O)cc1)C(=O)N[C@@H](C)C(=O)N[C@@H](CO)C(=O)O)[C@@H](C)O")
12

GET /value?item= CC(C)C[C@H](NC(=O)[C@H](CO)NC(=O)[C@H](Cc1ccc(O)cc1)NC(=O)[C@@H](NC(=O)[C@H](CCCNC(=N)N)NC(=O)[C@@H](NC(=O)[C@H](CO)NC(=O)[C@@H](NC(=O)[C@@H](NC(=O)[C@@H](NC(=O)[C@H](Cc1ccc(O)cc1)NC(=O)[C@H](CO)NC(=O)[C@H](CCCNC(N)=O)NC(=O)[C@H](CO)NC(=O)[C@@H](N)CO)C(C)C)[C@@H](C)O)[C@@H](C)O)[C@@H](C)O)[C@@H](C)O)C(=O)O [SSXSYVTTSTRTYSL] (H-SS[Cit]SYVTTSTRTYSL-OH) &field=IC50 returns 93

IC50 in this record for CC(C)C[C@H](NC(=O)[C@@H](NC(=O)[C@H](CC(N)=O)NC(=O)[C@H](CCC(=O)O)NC(=O)[C@H](C)NC(=O)[C@H](CCC(=O)O)NC(=O)[C@H](CCC(=O)O)NC(=O)[C@@H](N)CCCNC(N)=O)[C@@H](C)O)C(=O)N[C@@H](CCC(N)=O)C(=O)N[C@@H](CO)C(=O)N[C@@H](Cc1ccccc1)C(=O)N[C@@H](CCCNC(=N)N)C(=O)N[C@@H](CCC(N)=O)C(=O)N[C@@H](CC(=O)O)C(=O)N[C@H](C(=O)O)C(C)C [XEEAENTLQSFRQDV] (H-[Cit]EEAENTLQSFRQDV-OH) : 25300

###

STUDY SYSTEM: HLA-DRB1*01:01 (Homo sapiens, UniProt P01903+P01911, A100R/D57E/F55L/F60I/F76Y/I96L/L162R/M171V/P40L/Q125E/R42F/V115G/Y59C)
Construct: EBV transformed homozygous cell lines were used as sources of MHC molecules; endogenous in cells; host or cells: EBV transformed homozygous cell lines
ASSAY SUMMARY: HLA class II peptide binding, inhibition of radiolabeled peptide binding to purified MHC
TEST CONDITIONS: citrullinated 15-mer (X); purified MHC, inhibition of radiolabeled peptide binding; dash = IC50 >40,000 nM; read-out: DRB1*01:01 binding capacity, Cit peptide (IC50 nM)
Square brackets hold non-standard residues; d marks the D form. Peptide text beside a SMILES is read from it. Cit = NC(=O)NCCC[C@H](N)C(=O)O
This section presents molecules with their documented IC50 values.
Kindly answer with a numeric value in nM, unit omitted.

>>> readout_number("CC(C)C[C@H](NC(=O)[C@H](CC(N)=O)NC(=O)[C@H](CC(=O)O)NC(=O)[C@H](CCCNC(N)=O)NC(=O)[C@H](CCC(=O)O)NC(=O)[C@@H](NC(=O)[C@H](CCC(=O)O)NC(=O)[C@@H](NC(=O)[C@H](CCCNC(=N)N)NC(=O)[C@H](C)NC(=O)[C@H](CCCCN)NC(=O)[C@H](CC(=O)O)NC(=O)[C@@H](N)CC(N)=O)C(C)C)C(C)C)C(=O)N[C@@H](C)C(=O)N[C@@H](CCC(=O)O)C(=O)O [NDKARVEVEXDNLAE] (H-NDKARVEVE[Cit]DNLAE-OH)")
578

Recorded result, CC(C)C[C@H](NC(=O)[C@H](CCC(=O)O)NC(=O)[C@H](C)NC(=O)[C@H](CC(C)C)NC(=O)[C@@H](N)CC(C)C)C(=O)N[C@@H](CCC(=O)O)C(=O)N[C@@H](CCC(N)=O)C(=O)N[C@@H](CC(C)C)C(=O)N[C@@H](CCCCN)C(=O)NCC(=O)N[C@@H](CCC(N)=O)C(=O)NCC(=O)N[C@@H](CCCCN)C(=O)N[C@@H](CO)C(=O)N[C@@H](CCCNC(N)=O)C(=O)O [LLAELEQLKGQGKSX] (H-LLAELEQLKGQGKS[Cit]-OH) , IC50: 428
